# key: entry, value: AC50 cell viability
System: HCT116
measurement.description: AC50 cell viability (CellTiter-Glo); higher = less potent
measurement.setup: 48 h
// units = nM; emit number, no label

Q: Endpoint output: AC50 cell viability of `CC(C)C[C@H](NC(=O)[C@@H](NC(=O)c1cccc(-c2ccccc2)n1)[C@@H](C)O)B(O)O` . Value?
Ans: 36.2

Q: Now try `COc1cc(C(=O)NC2CCN(C)CC2)ccc1Nc1ncc2c(n1)N(C1CCCC1)CCC(=O)N2C(C)C` .
Ans: 14800

Q: Now try `C#Cc1cccc(Nc2ncnc3cc(OCCOC)c(OCCO)cc23)c1` .
Ans: 6610

Q: Now try `F\C1=C\NC(=O)NC1=O` .
Ans: 10500

Q: Now try `CN(C)CCN(C)C(=O)c1ccc(NC(=O)Nc2ccc(-c3nc(N4CCOCC4)c4ccn(CC(F)(F)F)c4n3)cc2)cc1` .
Ans: 263

Q: Now try CNC1CCC(N(Cc2cccc(-c3ccncc3)c2)C(=O)c2sc3c(F)ccc(F)c3c2Cl)CC1 (centres undefined) .
Ans: 13200

* * *

System: HCT116
measurement.description: efficacy (fitted maximal change in viability relative to DMSO control); higher = less cytotoxic (negative = loss of viability)
measurement.setup: 48 h
Where a name gives a salt, the structure may show the parent alone.
# key: entry, value: efficacy
Answer by giving the amount and then stating its unit.

For orientation, consider the following solved cases.
>  <compound>
CCN1C(=O)N\2CC3=CC(=CC(=C3[C@@H](C)\C=C2C14CCN(CC4)CC5=CC(=CC(=C5)C)C)OC)OC

>  <efficacy>
-91.8%

$$$$
>  <compound>
CC[C@H](NC(C)C)[C@H](O)C1=CC=C(O)C2=C1\C=C/C(=O)N2 [Procaterol hydrochloride]

>  <efficacy>
6.79%

$$$$
>  <compound>
COC(=O)N(C)c1c(N)nc(-c2nn(Cc3ccccc3F)c3ncccc23)nc1N

>  <efficacy>
-5.69%

$$$$

Now turn to the next compound.
Q: Endpoint output: efficacy of CC[S+](=O)([O-])N1CCC([C@@H](C)n2c(C)c(/C(O)=N/Cc3c(OC)cc(C)nc3O)c3ccccc32)CC1 (racemic) [CPI-169 racemate] . Value?
Ans: -16.2%

* * *

Test system: HCT116
measurement.description: AC50 cell viability (CellTiter-Glo); higher = less potent
measurement.setup: 48 h
# key: entry, value: log10(AC50 cell viability)
Scale: decimal log of AC50 cell viability, AC50 cell viability in µM.

For orientation, consider the following solved cases.
>  <compound>
CCn1c(-c2nonc2N)nc2cnc(Oc3cccc(NC(=O)c4ccc(OCCN5CCOCC5)cc4)c3)cc21

>  <log10(AC50 cell viability)>
1.02

$$$$
>  <compound>
CC1=C(C)C\2=C(S1)[N]3C(=NN=C3C(CC(N)=O)\N=C2C4=CC=C(Cl)C=C4)C (centres undefined)

>  <log10(AC50 cell viability)>
-0.53

$$$$
>  <compound>
Cn1c(Nc2ccc(C(F)(F)F)cc2)nc2cc(Oc3ccnc(-c4nc(C(F)(F)F)c[nH]4)c3)ccc21

>  <log10(AC50 cell viability)>
0.72

$$$$

Q: Endpoint output: log10(AC50 cell viability) of `CC\1=C(C(=O)N(\C=C1)C2=CC=C(C=C2)C3=NC=CO3)/C4=CC5=CN=C(N)N=C5C=C4` . Value?
Ans: 0.22

Values from the supplement of paper PMC10290057
